Test system: PC-3 prostate
Assay: NCI-60 one-dose screen, 48 h
Details: 10 µM
Procedure: Growth inhibition of the PC-3 human tumor cell line is measured as a screen for anti-cancer activity. Cells are grown in 96 well plates and exposed to the test compound for 48 hours. Compounds are tested at a single concentration, which is 10^-5 M for most compounds. The reported endpoint is percent growth (GI% or GIPRCNT), where numbers from 0 - 100% represent growth inhibition, and numbers from -100% - 0 represent cell death. For example, a value of 40 represents 60% growth inhibition. […]
This is part of a sample that, as a whole, favours compounds with a hit. Of some 83,000 tested, about 20% had one in any assay. Activity calls are given as the source filed them. Rule for the calls: active = growth percent below 10; inactive = the rest.
Lab note: assign the record to one of active, inactive

C=CC[Se]C(=O)c1ccc(C(=O)[Se]CC=C)s1 : active

Check the results log: what was the call for CC1=C(CCC=NNC(N)=O)C2=C(C)C3(CC3)[C@@](C)(O)C(=O)C2=C1 ?
active

Check the results log: what was the call for COc1cc(OC)c(S(=O)(=O)N(CCCl)CCCl)cc1C(=O)/C=C/c1ccc(C)cc1 ?
inactive

Check the results log: what was the call for O=C(/C=C/c1cccc(Br)c1)c1nc2ccccc2n1Cc1ccc(Br)cc1 ?
active

Check the results log: what was the call for O=C(/C=C/c1ccccc1)c1nc2ccccc2n1Cc1ccc(Br)cc1 ?
active

Check the results log: what was the call for Cc1ccc2[nH]c(=S)n(-c3ccc(F)cc3)c(=O)c2c1 ?
inactive

Check the results log: what was the call for CC(=O)Oc1ccccc1C(=O)NC([Se])=NC1CCCCC1 ?
inactive

Check the results log: what was the call for CC[C@]12C=CCN3CC[C@@]4(c5ccc(OC)cc5N(C)[C@H]4[C@@](O)(C(=O)OC)[C@@H]1OC(=O)CCC[P+](c1ccc(C)cc1)(c1ccc(C)cc1)c1ccc(C)cc1)[C@@H]32 ?
active

Check the results log: what was the call for CC12OOC(C)(OO1)C2CCC(=O)NCCNc1ccnc2cc(Cl)ccc12 (centres undefined) ?
inactive
